Test: In vivo PK characteristics
Set-up: species or system mice
Run conditions: mouse, iv, 12.5 mg/kg
Observation type: AUC (ng·h/mL)
Give the quantity in ng·h/mL, number only.

Incoming: Look at this compound and give its reported AUC. COc1ccccc1-c1nccc(COc2ccccc2C[C@@H](Oc2ncnc3sc(-c4ccc(F)cc4)c(-c4ccc(OCCN5CCN(C)CC5)c(Cl)c4C)c23)C(=O)O)n1 [Compound 16a]
Outgoing: 34000

Incoming: Could you do the same for COc1ccccc1-c1nccc(COc2ccccc2C[C@@H](Oc2ncnc3oc(-c4ccc(F)cc4)c(-c4ccc(OCCN5CCN(C)CC5)c(Cl)c4C)c23)C(=O)O)n1 [Compound 24] , please?
Outgoing: 56000

----------
Subject of test: MCL-1 (Homo sapiens)
Test: FP
Assay type: binding
Run conditions: FP MCL-1 Ki
Ki values, listed per item
Please reply with the bare figure in nM and do not write the unit itself.

Cc1c(Cl)cccc1-c1c2n(c3ncnc(N[C@H](Cc4ccccc4)C(=O)O)c13)CCCC2 (single isomer, unassigned) [Compound 12a] :: 11000

Incoming: Need Ki of CCc1c(-c2cccc(Cl)c2C)c2c(N[C@H](Cc3ccccc3)C(=O)O)ncnc2n1Cc1cccc2ccccc12 (single isomer, unassigned) [Compound 10a] , thanks.
Outgoing: 3500

Incoming: What about this compound? CCc1c(-c2cccc(Cl)c2C)c2c(N[C@H](Cc3ccccc3)C(=O)O)ncnc2n1Cc1cccc2ccccc12 (single isomer, unassigned) [Compound 10b]
Outgoing: 260

----------
We begin with a simple list: items and their reported Ki.
Subject of test: MCL-1 (Homo sapiens)
Test: FP
Assay type: binding
Run conditions: FP MCL-1 Ki
Record the value in µM, omitting the unit from your answer.

Please review the entries below; each comes with its answer.
C=CCn1c(CC)c(-c2cccc(Cl)c2C)c2c(N[C@H](Cc3ccccc3)C(=O)O)ncnc21 (single isomer, unassigned) [Compound 3a] :: 18
CC#CCn1c(CC)c(-c2cccc(Cl)c2C)c2c(N[C@H](Cc3ccccc3)C(=O)O)ncnc21 (single isomer, unassigned) [Compound 7a] :: 5.9

Please examine the following record next.
Incoming: What value of measured Ki is listed for CCc1c(-c2cccc(Cl)c2C)c2c(N[C@H](Cc3ccccc3)C(=O)O)ncnc2n1CCC1CCCC1 (single isomer, unassigned) [Compound 9a] ?
Outgoing: 3.5

----------
The reader will find reported clearance values listed item by item below.
Test: In vivo PK characteristics
Parameters: species or system mice
Run conditions: mouse, iv, 12.5 mg/kg
Please respond with the number in mL/min/kg and leave the unit unwritten.

COc1ccccc1-c1nccc(COc2ccccc2C[C@@H](Oc2ncnc3oc(-c4ccc(F)cc4)c(-c4ccc(OCCN5CCN(C)CC5)c(Cl)c4C)c23)C(=O)O)n1 [Compound 24] :: 2.5

Okay, next one:
Incoming: Suppose we examine the compound COc1ccccc1-c1nccc(COc2ccccc2C[C@@H](Oc2ncnc3sc(-c4ccc(F)cc4)c(-c4ccc(OCCN5CCN(C)CC5)c(Cl)c4C)c23)C(=O)O)n1 [Compound 16a] ; what clearance value has been reported?
Outgoing: 6

----------
Subject of test: MCL-1 (Homo sapiens)
Test: FP
Type: binding
Run conditions: FP MCL-1 Ki
Observation type: Ki (µM)
Please give a number only; it is taken to be in µM.

Past entries and their recorded results:
CC#CCn1c(CC)c(-c2cccc(Cl)c2C)c2c(N[C@H](Cc3ccccc3)C(=O)O)ncnc21 (single isomer, unassigned) [Compound 7b] :: 0.33
CCc1c(-c2cccc(Cl)c2C)c2c(N[C@H](Cc3ccccc3)C(=O)O)ncnc2n1CC(F)(F)F (single isomer, unassigned) :: 8.5

The record that follows has no Ki shown yet.
Incoming: Which Ki is reported for this molecule? C=CCn1c(CC)c(-c2cccc(Cl)c2C)c2c(N[C@H](Cc3ccccc3)C(=O)O)ncnc21 (single isomer, unassigned) [Compound 3b]
Outgoing: 9.1

----------
Each item that follows carries a reported Ki.
Subject of test: MCL-1 (Homo sapiens, UniProt Q07820)
Sequence (Q07820 whole entry): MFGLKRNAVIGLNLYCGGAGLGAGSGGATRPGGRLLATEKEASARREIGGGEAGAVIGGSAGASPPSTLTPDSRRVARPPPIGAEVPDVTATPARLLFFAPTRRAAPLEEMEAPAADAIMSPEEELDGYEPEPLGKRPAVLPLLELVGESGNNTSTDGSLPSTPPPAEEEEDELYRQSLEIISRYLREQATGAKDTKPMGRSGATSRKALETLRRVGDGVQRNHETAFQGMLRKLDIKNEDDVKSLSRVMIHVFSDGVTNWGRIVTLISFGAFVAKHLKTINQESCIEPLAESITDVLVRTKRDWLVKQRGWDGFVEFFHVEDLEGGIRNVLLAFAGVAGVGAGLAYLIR
Test: FP
Type: binding
Run conditions: FP MCL-1 Ki
Unit nM implied. Number only.

Incoming: Notebook entry, MCL-1 (Homo sapiens, UniProt Q07820) assay: Ki of CCc1c(-c2cccc(Cl)c2C)c2c(N[C@H](Cc3ccccc3)C(=O)O)ncnc2n1Cc1ccccc1 (single isomer, unassigned) [Compound 8b] = ?
Outgoing: 530

Incoming: Same lookup for `COc1ccccc1C[C@@H](Oc1cccc2cc(-c3ccc(F)cc3)n(-c3ccc(OCCN4CCN(C)CC4)c(Cl)c3C)c12)C(=O)O` , please.
Outgoing: 47

Incoming: Cool, now `COc1ccccc1C[C@@H](Oc1cccc2oc(-c3ccc(F)cc3)c(-c3ccc(OCCN4CCN(C)CC4)c(Cl)c3C)c12)C(=O)O`
Outgoing: 820
